Documented Bioavailability across a set of compounds
run.conditions: mouse, in vivo, 120 min
Express the result in % but write the number alone.

| compound | result |
| --- | --- |
| CC(C)CCOC(=O)OC(C)OC(=O)C1=C(CSc2nnnn2CCN(C)C)CS[C@@H]2[C@H](NC(=O)Cc3csc(N)n3)C(=O)N12 (stereo partly drawn) [Example 2] | 90.8 |
| CCOC(=O)OC(C)OC(=O)C1=C(CSc2nnnn2CCN(C)C)CS[C@@H]2[C@H](NC(=O)Cc3csc(N)n3)C(=O)N12 (stereo partly drawn) [Compound A, reference compound] | 23.9 |
| CCC(CC)COC(=O)OC(C)OC(=O)C1=C(CSc2nnnn2CCN(C)C)CS[C@@H]2[C@H](NC(=O)Cc3csc(N)n3)C(=O)N12 (stereo partly drawn) [Example 4] | 83.6 |

# query: Bioavailability of entry CCCC(C)OC(=O)OC(C)OC(=O)C1=C(CSc2nnnn2CCN(C)C)CS[C@@H]2[C@H](NC(=O)Cc3csc(N)n3)C(=O)N12 (stereo partly drawn) [Example 8]
110.6

Param item = CC(OC(=O)OCC(C)(C)C)OC(=O)C1=C(CSc2nnnn2CCN(C)C)CS[C@@H]2[C@H](NC(=O)Cc3csc(N)n3)C(=O)N12 (stereo partly drawn) [Example 7] ; retrieve measured Bioavailability.
92.0

Entry under review: CCCC(C)COC(=O)OC(C)OC(=O)C1=C(CSc2nnnn2CCN(C)C)CS[C@@H]2[C@H](NC(=O)Cc3csc(N)n3)C(=O)N12 (stereo partly drawn) [Example 6] . Reported Bioavailability?
80.1

----------
run.conditions: mouse, in vivo, po, 100 mg/kg, 15 min
Could you mark each record Yes if its Plasma level of non-ester compound falls strictly under 60 µg/mL, and No if it equals or exceeds it?

| compound | assigned.label |
| --- | --- |
| CC(OC(=O)OCC(C)(C)C)OC(=O)C1=C(CSc2nnnn2CCN(C)C)CS[C@@H]2[C@H](NC(=O)Cc3csc(N)n3)C(=O)N12 (stereo partly drawn) | No |
| CCCC(C)COC(=O)OC(C)OC(=O)C1=C(CSc2nnnn2CCN(C)C)CS[C@@H]2[C@H](NC(=O)Cc3csc(N)n3)C(=O)N12 (stereo partly drawn) | Yes |
| CCCC(C)OC(=O)OC(C)OC(=O)C1=C(CSc2nnnn2CCN(C)C)CS[C@@H]2[C@H](NC(=O)Cc3csc(N)n3)C(=O)N12 (stereo partly drawn) | No |

For this compound, is Plasma level of non-ester compound lower than 60 µg/mL? CCC(CC)COC(=O)OC(C)OC(=O)C1=C(CSc2nnnn2CCN(C)C)CS[C@@H]2[C@H](NC(=O)Cc3csc(N)n3)C(=O)N12 (stereo partly drawn)
Yes

Hello, is Plasma level of non-ester compound of the following compound strictly smaller than 60 µg/mL? CCOC(=O)OC(C)OC(=O)C1=C(CSc2nnnn2CCN(C)C)CS[C@@H]2[C@H](NC(=O)Cc3csc(N)n3)C(=O)N12 (stereo partly drawn) [Compound A, reference compound]
Yes

Dear reviewer, please state whether CC(C)CCOC(=O)OC(C)OC(=O)C1=C(CSc2nnnn2CCN(C)C)CS[C@@H]2[C@H](NC(=O)Cc3csc(N)n3)C(=O)N12 (stereo partly drawn) has Plasma level of non-ester compound strictly beneath 60 µg/mL.
No

----------
run.conditions: mouse, in vivo, po, 100 mg/kg, 30 min
Description: The compounds of Examples 2, 4, 6, 7 and 8 and the 1-(ethoxycarbonyloxy)ethyl ester of compound [II] (briefly, compound A) are each administered orally to a mouse in a dose of 100 mg/kg in terms of non-ester compound, i.e., compound [II]. […] As control, the non-ester compound is administered subcutaneously to a mouse and the AUC value is similarly calculated.
If the reported Plasma level of non-ester compound equals or exceeds 30000 ng/mL, assign satisfied. If not, assign not satisfied.

Use these answered entries as a reference point.
| compound | assigned.label |
| --- | --- |
| CCOC(=O)OC(C)OC(=O)C1=C(CSc2nnnn2CCN(C)C)CS[C@@H]2[C@H](NC(=O)Cc3csc(N)n3)C(=O)N12 (stereo partly drawn) [Compound A, reference compound] | not satisfied |
| CCCC(C)OC(=O)OC(C)OC(=O)C1=C(CSc2nnnn2CCN(C)C)CS[C@@H]2[C@H](NC(=O)Cc3csc(N)n3)C(=O)N12 (stereo partly drawn) | satisfied |

# check: Plasma level of non-ester compound of CCCC(C)COC(=O)OC(C)OC(=O)C1=C(CSc2nnnn2CCN(C)C)CS[C@@H]2[C@H](NC(=O)Cc3csc(N)n3)C(=O)N12 (stereo partly drawn) is greater than or equal to 30000 ng/mL
satisfied

For this compound, is measured Plasma level of non-ester compound 30000 ng/mL or higher? CC(C)CCOC(=O)OC(C)OC(=O)C1=C(CSc2nnnn2CCN(C)C)CS[C@@H]2[C@H](NC(=O)Cc3csc(N)n3)C(=O)N12 (stereo partly drawn)
not satisfied

# check: Plasma level of non-ester compound of CCC(CC)COC(=O)OC(C)OC(=O)C1=C(CSc2nnnn2CCN(C)C)CS[C@@H]2[C@H](NC(=O)Cc3csc(N)n3)C(=O)N12 (stereo partly drawn) is greater than or equal to 30000 ng/mL
satisfied

Could you verify whether the entry CC(OC(=O)OCC(C)(C)C)OC(=O)C1=C(CSc2nnnn2CCN(C)C)CS[C@@H]2[C@H](NC(=O)Cc3csc(N)n3)C(=O)N12 (stereo partly drawn) shows Plasma level of non-ester compound of no less than 30000 ng/mL?
satisfied

Origin of values: patent US4755598A
